assay: Stability in human liver microsomes at 1 uM measured up to 60 mins by LC-MS/MS analysis; format: ADME, Microsome; settings: 1 h
Reported Property: Stability

Oc1ccc2c3c1O[C@H]1c4ncc(-c5ccc(Cl)cc5)cc4C[C@@]4(OCc5ccc6ccccc6n5)[C@@H](C2)N(CC2CC2)CC[C@]314; Stable
Oc1ccc2c3c1O[C@H]1c4ncc(-c5ccccn5)cc4C[C@@]4(OCCCc5ccccc5)[C@@H](C2)N(CC2CC2)CC[C@]314; Stable
CN(C)c1ccccc1-c1cnc2c(c1)C[C@@]1(OCCCc3ccccc3)[C@H]3Cc4ccc(O)c5c4[C@@]1(CCN3CC1CC1)[C@H]2O5; Stable
